Record form. Attribute: pIC50. Fill in for each entry.
- targetDesc: UniProt P08482
- Sequence (P08482 1-460): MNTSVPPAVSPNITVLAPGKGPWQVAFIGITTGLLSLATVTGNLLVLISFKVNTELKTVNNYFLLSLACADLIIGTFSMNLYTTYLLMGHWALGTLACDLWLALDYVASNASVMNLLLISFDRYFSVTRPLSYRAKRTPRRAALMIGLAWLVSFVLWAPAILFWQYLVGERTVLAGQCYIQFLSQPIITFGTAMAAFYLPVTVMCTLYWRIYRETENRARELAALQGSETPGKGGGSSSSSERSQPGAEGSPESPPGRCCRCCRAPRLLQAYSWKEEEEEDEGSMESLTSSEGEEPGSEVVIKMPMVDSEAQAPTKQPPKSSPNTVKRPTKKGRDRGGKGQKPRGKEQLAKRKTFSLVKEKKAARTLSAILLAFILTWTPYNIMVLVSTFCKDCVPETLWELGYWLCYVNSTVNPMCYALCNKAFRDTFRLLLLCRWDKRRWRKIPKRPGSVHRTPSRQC
- protocolSummary: biochemical
- Assay type: binding
- conditionContext: rat hippocampus homogenate, 3H-PZ 1 nM, 2 hours at 4° C., pH 7.40; read-out: IC50 3H-PZ (M1)
One number for each entry, as −log10 of the molar value.

Example compounds with recorded pIC50:
CN(C)CCCNc1nc(-c2ccccc2)cs1 = 6.00
CCN(CC)CCNc1nc(C23CC4CC(CC(C4)C2)C3)cs1 = 5.92
Cc1cc(C)c(-c2csc(NCCC3CCCN3C)n2)c(C)c1 (stereo not drawn) = 5.85
Cc1cc(C)c(-c2csc(NCCCN3CCCC3)n2)c(C)c1 = 6.05
Cc1nc(NCCCN(C)C)sc1-c1ccccc1 = 5.82
Cc1ccccc1-c1csc(NCCCN(C)C)n1 = 5.59
Cc1cc(C)c(-c2csc(NCCCN(C)C)n2)c(C)c1 = 5.44
Cc1nc(NCCN(C(C)C)C(C)C)sc1-c1ccccc1 = 6.52
c1ccc(-c2cnc(NCCc3ccncc3)s2)cc1 = 5.35
Fc1ccc(-c2csc(NCc3ccncc3)n2)cc1 = 6.22

Consider the following items and state reported pIC50 for each.
1. CCN(CC)CCNc1nc(-c2ccc([N+](=O)[O-])cc2)cs1
2. CCN(CC)CCCNc1nc(-c2ccc3ccccc3c2)cs1
3. CCN(CC)CCCNc1nc(Cc2ccccc2)c(-c2ccccc2)s1
4. CCCCN(CCCC)CCNc1nc(-c2ccc(F)cc2)cs1
5. CCN1CCCC(Nc2nc(-c3c(C)cc(C)cc3C)cs2)C1 (stereo not drawn)

1. 5.59
2. 5.74
3. 6.70
4. 5.22
5. 5.92

###

- targetDesc: M1 -type muscarinic cholinergic receptor (Rattus norvegicus, UniProt P08482)
- protocolSummary: biochemical
- Assay type: binding
- conditionContext: rat hippocampus homogenate, 3H-PZ 1 nM, 2 hours at 4° C., pH 7.40; read-out: IC50 3H-PZ (M1)
reportedMetric: IC50

Example molecules with recorded IC50:
CN(C)CCCNc1nc(-c2ccc(F)cc2)cs1 = 800 nM
Cc1cc(C)c(-c2csc(NCc3ccncc3)n2)c(C)c1 = 280 nM
CN1CCCC1CCNc1nc(-c2ccc(F)cc2)cs1 (centres unmarked) = 600 nM
CN(C)CCCNc1nc(-c2ccc(Cl)cc2)cs1 = 1600 nM
CN(C)CCCNc1nc(-c2ccccc2)c(-c2ccccc2)s1 = 300 nM
CN(C)CCCNc1nc(Cc2ccccc2)c(-c2ccccc2)s1 = 100 nM
CN(C)CCCNc1nc(-c2ccc(Cl)cc2Cl)cs1 = 1800 nM
CCN(CC)CCCNc1nc(-c2c(C)cc(C)cc2C)cs1 = 350 nM
Cc1nc(NCCN2CCCC2)sc1-c1ccccc1 = 1700 nM
CCN(CC)CCNc1nc(-c2ccccc2)cs1 = 6000 nM

Consider the following items and state reported IC50 for each.
1. CCN(CC)CCNc1nc(-c2c(C)cc(C)cc2C)cs1
2. CC(C)(c1ccccc1)c1csc(NCc2cccnc2)n1
3. CCCCN(CCCC)CCNc1ncc(-c2ccccc2)s1
4. CCN(CC)CCCNc1ncc(-c2ccccc2)s1
5. c1ccc(-c2nc(NCc3cccnc3)sc2-c2ccccc2)cc1
6. CCN(CC)CCCNc1nc2c(s1)CCCc1ccccc1-2
7. CCN(CC)CCNc1nc2c(s1)CCCc1ccccc1-2

120 nM
3000 nM
3600 nM
2000 nM
6000 nM
2200 nM
1700 nM

Consider the following items and state reported IC50 for each.
1. Cc1cc(C)c(-c2csc(NCCc3ccncc3)n2)c(C)c1
2. CNCCCNc1nc(-c2c(C)cc(C)cc2C)cs1
3. c1ccc(-c2csc(NCCCN3CCOCC3)n2)cc1

["300 nM", "1600 nM", "8000 nM"]

###

Record form. Attribute: ratio R of the IC50 values for the M1 and M2 receptors. Fill in for each entry.
- targetDesc: M1 -type muscarinic cholinergic receptor (Rattus norvegicus)
- Sequence (P08482 1-460): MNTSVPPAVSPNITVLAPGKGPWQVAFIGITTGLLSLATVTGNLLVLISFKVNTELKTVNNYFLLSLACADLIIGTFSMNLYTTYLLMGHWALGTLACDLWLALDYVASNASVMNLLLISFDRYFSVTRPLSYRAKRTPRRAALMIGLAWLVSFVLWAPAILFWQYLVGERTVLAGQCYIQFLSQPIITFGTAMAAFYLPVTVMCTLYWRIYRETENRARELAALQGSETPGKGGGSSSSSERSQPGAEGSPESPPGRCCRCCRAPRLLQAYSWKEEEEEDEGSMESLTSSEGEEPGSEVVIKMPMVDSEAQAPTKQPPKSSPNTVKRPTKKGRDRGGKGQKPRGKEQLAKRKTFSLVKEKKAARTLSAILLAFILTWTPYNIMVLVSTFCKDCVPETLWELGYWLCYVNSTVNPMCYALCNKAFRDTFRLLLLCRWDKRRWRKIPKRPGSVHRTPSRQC
- protocolSummary: biochemical
- Assay type: binding
- conditionContext: selectivity; values correspond to IC50 M2 / IC50 M1
Numbers only.

Example compounds with recorded ratio R of the IC50 values for the M1 and M2 receptors:
CCN(CC)CCNc1nc(-c2ccccc2)c(-c2ccccc2)s1 = 7
CN(C)CCCNc1nc(-c2ccccc2)cs1 = 70

Shift focus to the following entry.
# compound CCCCN(CCCC)CCNc1nc(-c2ccc(F)cc2)cs1 ; its ratio R of the IC50 values for the M1 and M2 receptors = 13

###

Record form. Attribute: pIC50. Fill in for each entry.
- targetDesc: M2 -type muscarinic cholinergic receptor (Cavia porcellus, UniProt H0VRN8)
- Construct: on a smooth guinea-pig ileum muscle homogenate; from tissue; host or cells: guinea-pig ileum smooth muscle homogenate
- Sequence (H0VRN8 1-466): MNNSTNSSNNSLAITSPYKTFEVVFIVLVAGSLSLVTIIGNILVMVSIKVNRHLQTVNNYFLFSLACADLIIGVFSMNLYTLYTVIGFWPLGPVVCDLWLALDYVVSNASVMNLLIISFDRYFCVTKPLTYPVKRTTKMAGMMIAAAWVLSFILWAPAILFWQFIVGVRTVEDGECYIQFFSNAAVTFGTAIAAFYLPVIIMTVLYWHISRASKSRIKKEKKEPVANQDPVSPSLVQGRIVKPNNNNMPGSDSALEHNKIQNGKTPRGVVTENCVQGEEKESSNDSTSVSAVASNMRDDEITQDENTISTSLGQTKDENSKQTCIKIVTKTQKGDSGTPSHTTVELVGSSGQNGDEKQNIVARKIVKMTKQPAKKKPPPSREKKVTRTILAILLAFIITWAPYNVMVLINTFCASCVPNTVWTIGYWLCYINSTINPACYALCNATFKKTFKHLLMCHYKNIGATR
- protocolSummary: Affinity for the M2-type muscarinic cholinergic receptor, displacement of tritiated N-methylscopolamine (3H-NMS) on smooth guinea-pig ileum muscle homogenate
- Assay type: binding
- conditionContext: guinea-pig ileum smooth muscle homogenate, 3H-NMS 0.3 nM, 20 minutes at 30° C., pH 7.5; read-out: IC50 3H-NMS (M2)
One number for each entry, as −log10 of the molar value.

CN(C)CCCNc1nc(-c2cccc([N+](=O)[O-])c2)cs1 [SR 44791 A] = 4.40
CN(C)CCCNc1nc(-c2ccc(F)cc2)cs1 [SR 44494 A] = 4.10
c1ccc(-c2csc(NCCCN3CCOCC3)n2)cc1 [SR 44284 A] = 4.40
CC(C)N(CCNc1ncc(-c2ccccc2)s1)C(C)C [SR 44491 A] = 5.07
CN(C)CCCNc1nc(Cc2ccccc2)c(-c2ccccc2)s1 [SR 45016 A] = 5.26
c1ccc(-c2cnc(NCCc3ccncc3)s2)cc1 [SR 44966 A] = 4.00

Shift focus to the following entry.
# compound CCN(CC)CCNc1nc(-c2ccc([N+](=O)[O-])cc2)cs1 [SR 44469 A] ; its pIC50 = 4.22
